tested on: Vero cells; experiment: Cell viability assay (MTT) in Vero cells; format: cell-based; conditions: Table 3; Vero cells
Value Type: CC50 (µM)
API: value field is a number in µM; no unit string.

Query :: Which CC50 is reported with Vero cells for this entry: CSc1ncnc2c1ncn2[C@@H]1O[C@H](CO)[C@@H](O)[C@H]1O [6-MMPr, 6-methylmercaptopurine riboside, reference compound] ?
Result :: 291

* * *

tested on: Vero cells; assay: Cell viability assay (MTT) in Vero cells; format: cell-based; conditions: Table 2; Vero cells, MTT method, 120 h
Value Type: CC50
Please don't drop the unit; write it after the number.

Query :: Quick one: CC50 of CSc1ncnc2c1ncn2[C@@H]1O[C@H](CO)[C@@H](O)[C@H]1O [6-MMPr, 6-methylmercaptopurine riboside, reference compound] ?
Result :: 291 µM
